Target: Human immunodeficiency virus type 1 reverse transcriptase (Human immunodeficiency virus 1, UniProt Q72547, Y181C)
Test: Inhibition of RNA-dependent DNA polymerase activity of HIV1 reverse transcriptase Y181C mutant
pIC50: −log10 of the molar value.

- structure: "Cc1n[nH]c2ccc(F)c(Oc3cc(C#N)cc(C#N)c3)c12"
  pIC50: 6.84
- structure: "CCc1n[nH]c2ccc(F)c(Oc3cc(C#N)cc(C#N)c3)c12"
  pIC50: 7.49

----------
Assay: Metabolic stability in human liver microsomes assessed as half life
Type: ADME, Microsome
half-life values, listed per item

- structure: "CC(C)c1nc(COC(N)=O)n(Cc2ccncc2)c1Sc1cc(Cl)cc(Cl)c1"
  half-life: "0.125 h"
- structure: "Cc1n[nH]c2c(CO)ccc(Oc3cc(C#N)cc(C#N)c3)c12"
  half-life: "> 2 h"
- structure: "Cc1n[nH]c2ccc(F)c(Oc3cc(C#N)cc(C#N)c3)c12"
  half-life: "> 2 h"
- structure: "CCc1n[nH]c2ccc(F)c(Oc3cc(C#N)cc(C#N)c3)c12"
  half-life: "> 2 h"

----------
// values below are IC50; system is Human immunodeficiency virus type 1 reverse transcriptase (Human immunodeficiency virus 1)

- structure: "CCc1n[nH]c2cccc(Oc3cc(C#N)cc(C#N)c3)c12"
  IC50: "112 nM"
- structure: "Cc1n[nH]c2cccc(Oc3cc(C#N)cc(C#N)c3)c12"
  IC50: "332 nM"
- structure: "COCc1n[nH]c2cccc(Oc3cc(C#N)cc(C#N)c3)c12"
  IC50: "1670 nM"
- structure: "Cc1n[nH]c2ccc(F)c(Oc3cc(C#N)cc(C#N)c3)c12"
  IC50: "50 nM"
- structure: "CNCc1n[nH]c2cccc(Oc3cc(C#N)cc(C#N)c3)c12"
  IC50: "> 30000 nM"
- structure: "Cc1n[nH]c2ccc(Cl)c(Oc3cc(C#N)cc(C#N)c3)c12"
  IC50: "399 nM"
- structure: "CCc1n[nH]c2ccc(F)c(Oc3cc(C#N)cc(C#N)c3)c12"
  IC50: "25 nM"
- structure: "Cc1n[nH]c2c(CO)ccc(Oc3cc(C#N)cc(C#N)c3)c12"
  IC50: "71 nM"

# credit: ChEMBL document CHEMBL1140926
